- protocol_text: chemical genetic growth profiling, strain panel (AID 1159580);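 note: tested at 20 µM; growth read once vehicle control cultures reached saturation at 30 °C; 1 = growth at the plate median or of vehicle wells; lower values mean less growth of the strain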
- condition_info: S. cerevisiae deletion strains, growth OD, locus YHR094C, strain hxt1, active compounds read low
The campaign covered roughly 5,500 compounds. About 2,000 (36%) were called active. Not shown: some 18% with an inconclusive outcome. This is one part of the list.
endpoint_label: normalized growth
Reply with the value as a number alone.

Example entries begin here.
COc1ccc2c(c1)OC/C(=C\c1ccc(OC)c(O)c1)C2=O :: 0.812
CCN(CC)Cc1ccc(Nc2ccnc3cc(Cl)ccc23)cc1O :: 0.998
COc1ccc2c(c1)OC/C(=C/c1ccc(OC)c(OC)c1)C2=O :: 0.969
c1ccc2c(c1)sc1ccccc12 :: 0.972
COc1cc2c(cc1OC)C(=O)c1ccc(OC)c(OC)c1OCC(=O)C2 :: 0.991

Prompt: // Input: CCN1CCCC(OC(=O)C(c2ccccc2)c2ccccc2)C1 (stereo unspecified) . Output its normalized growth only.
Response: 1.01
